TARGET_OR_TEST_SYSTEM: T1, His-cynomolgus monkey LIGHT (cynomolgus monkey)
T1 construct: also called His-cynoLIGHT
T1 chain: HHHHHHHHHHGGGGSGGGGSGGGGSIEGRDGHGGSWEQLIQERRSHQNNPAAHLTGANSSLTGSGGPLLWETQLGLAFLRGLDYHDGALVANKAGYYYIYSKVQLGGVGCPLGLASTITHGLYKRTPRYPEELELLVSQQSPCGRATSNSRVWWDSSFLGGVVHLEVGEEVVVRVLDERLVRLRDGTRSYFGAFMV
METHOD_NOTES: SPR, Biacore 8K, antibody on CM5 chip
As shown below, each of these binders has a reported kon value.
METRIC_NAME: kon (M⁻¹ s⁻¹)

BINDER	METRIC_NAME	MEASUREMENT_UNITS	QUANTITATIVE_READOUT
LT-m85 (antibody, human IgG4, V domains shown) VH: EVQLQQSGAELVKPGASVKMSCKASGYTFTSYNVHWVKQTPGQGLEWIGAVYPGNGDTSYNQKFKGKATLTADKSSNTAYMQLSSLTSEDSAVYYCARGSYYYTSSYFDHWGQGTTLTVSS VL: DIVLTQSPASLAVSLGQRATISCKASQSVDFDGDSYMNWYQQKPGQPPKLLIYTASNLESGIPARFTGSGSGTDFTLNIHPVEEEDAATYYCQQSYEDPFTFGSGTKLEIK	kon	M⁻¹ s⁻¹	1.12e+06
LT-m18 (antibody, V domains shown) VH: EVKLLESGPELVKPGASVKISCKASGYSFTGYFMNWVKQSHGKSLEWIGRIYPYSGDTFYNQKFNNKATLTVDKSSSTAHLELLSLTSEDSAVYYCGRSEHFGRNYGTGAVDYWGQGTSVTVSS VL: DIVLTQSPLSLPVSLGDQASISCRSSQSLVHSNGNTYLHWYLQKPGQSPKLLIYKVSNRFSGVPDRFSGSGSGTDFTLKISRVEAEDLGVYFCSQSTHVPLTFGDGTRLEIK	kon	M⁻¹ s⁻¹	79100
LT-m17 (antibody, human IgG4, V domains shown) VH: QVQLQQSGPELVKPGASVKISCKASGYSFTGYFMNWVKQSHGKSLEWIGRIYPYSGDTFYNQKFNNKATLTVDKSSSTAHLELLSLTSEDSAVYYCGRSEHFGRNYGTGAVDYWGQGTSVTVSS VL: DVVMTQTPLSLPVSLGDQASISCRSSQGLVHSNGNTYLHWYLQKPGQSPKLLIYKVSNRFSGVPDRFSGSGSGTDFTLKISRVEAEDLGIYFCSQSTHVPYTFGGGTKLEIK	kon	M⁻¹ s⁻¹	72700
LT-m58 (antibody, human IgG4, V domains shown) VH: QVQLQQSGAEMASPGASVTLSCKASGYTFIDHIMNWVKKRPGQGLEWIGRIYPVSGETNYNQKFMGKATFSVDRSSSTVYMVLNSLTSEDPAVYYCGRGSYYWNAMDYWGQGTTLTVSS VL: DIVMTQSPASLAVSLGQRATISCKASQSVDFDGDSYMNWYQQKPGQPPKLLIYSASNLESGIPARFSGSGSGTDFTLNIHPVEEEDAATYYCQQSIEDPWTFGGGTKLEIK	kon	M⁻¹ s⁻¹	357000
LT-m64 (antibody, human IgG4, V domains shown) VH: EVKLEESGAELVKPGASVRLSCKTSGYTFTNYYVYWVKQRPGQGLEWIGEINPTNGDPNFNEKFKSKATLTVDKSSSTAYMHLSSLTSEDSAVYYCTRSNWDYGNAMDFWGQGTSVTVSS VL: DIVMTQSPASLAVSLGQRATISCKASQSVDFDGDGYMNWYQQKPGQPPKLLIYKASHLDSGIPARFSASGSGTDFTLNIHPVEEEDAATYYCQQSIEDPFTFGSGTKLEIK	kon	M⁻¹ s⁻¹	1e+06
LT-m55 (antibody, human IgG4, V domains shown) VH: EVQLQQSGAELVKPGASVKLSCKASGYTFATYYMYWVKQRPGQGLEWIGEINPTNGGTIFNEKFKTKATLTVDKSSSTAYMQLSSLTSEDSAVYYCARGNWPYWSFDVWGAGTSVTVSS VL: DIVLTQSPASLAVSLGQRATISCKASQSVDFDGDNYMNWYQQKPGQPPKLLIYAASNLDSGIPARFSASGSGTDFTLNIHPVEEEDAATYYCQQSIEDPWTFGGGTKLEIK	kon	M⁻¹ s⁻¹	956000
